test-protocol: qHTS assay to identify small molecule antagonists of the estrogen receptor alpha (ER-alpha) signaling pathway using the BG1 cell line - cell viability counter screen (AID 743081);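 also: compound given together with 17beta-estradiol as the ER stimulus; nearly all actives have a fitted effect of over 45% in size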
recorded-conditions: BG1Luc4E2 viability, CellTiter-Fluor, 22 h; series mostly up to 70.3 µM
Inconclusive results are not listed. Calls of active or inactive are those of the source. Calls follow the shape of the dose curve; as a rule, active = well fitted cell-killing curve with a large enough effect in the repeat runs; inconclusive = weak or mixed curves, or effect the other way; inactive = flat fitted curve, though single readings scatter.
Hello, when you answer, please use one of the following outcomes: active, inactive

**Q:** # lookup: test call for CC(C)(C)c1ccccc1
**A:** inactive

**Q:** Further, for O=c1n(CC2CO2)c(=O)n(CC2CO2)c(=O)n1CC1CO1 (stereo unspecified) ?
**A:** inactive

**Q:** Further, for Cc1cc(OCCOCC[N+](C)(C)Cc2ccccc2)ccc1C(C)(C)CC(C)(C)C ?
**A:** inactive

**Q:** Further, for O=C(O)c1cc(Cl)cc(Cl)c1 ?
**A:** inactive

**Q:** Further, for CCCCC/C=C/CC1CC(=O)OC1=O (stereo unspecified) ?
**A:** inactive

**Q:** Further, for CCCN[C@H]1CCc2nc(N)sc2C1 ?
**A:** inactive

**Q:** Further, for CC(=O)OCCOCCOCCOC(C)=O ?
**A:** inactive

**Q:** Further, for CCOC(=O)C(C)C(C)=O (stereo unspecified) ?
**A:** inactive

**Q:** Further, for CCCCOCCOC(=O)c1ccccc1C(=O)OCCOCCCC ?
**A:** inactive

**Q:** Further, for CN1C(=O)c2ccc([N+](=O)[O-])cc2C1=O ?
**A:** inactive

**Q:** Further, for CC(C)(C)c1ccc(O)c(C(C)(C)C)c1 ?
**A:** inactive

**Q:** Further, for CCCCN(CCO)CCCC ?
**A:** inactive

**Q:** Further, for CC(C)(C)NCC(O)c1cc(O)cc(O)c1 (stereo unspecified) ?
**A:** inactive

**Q:** Further, for Cc1ccnc2c1NC(=O)c1cccnc1N2C1CC1 ?
**A:** inactive

**Q:** Further, for C[N+]1([O-])CCOCC1 ?
**A:** inactive

**Q:** Further, for N[C@@H]1CONC1=O ?
**A:** inactive

**Q:** Further, for CCCCCCCCCCCCCCCCCl ?
**A:** inactive

**Q:** Further, for CC1=C(C=O)C(C)(C)CC=C1 ?
**A:** inactive

**Q:** Further, for c1ccc2cc3c(ccc4ccccc43)cc2c1 ?
**A:** inactive

**Q:** Further, for NC(N)=Nc1nc(CSCC/C(N)=N/S(N)(=O)=O)cs1 ?
**A:** inactive

**Q:** Further, for c1ccc2c(c1)-c1cccc3c1c-2cc1ccccc13 ?
**A:** inactive

**Q:** Further, for CC(C)CCCCCCc1ccc(O)cc1 ?
**A:** inactive

**Q:** Further, for CCCCCC(=O)O[C@]1(C(C)=O)CC[C@H]2[C@@H]3CCC4=CC(=O)CC[C@]4(C)[C@H]3CC[C@@]21C ?
**A:** inactive

**Q:** Further, for Cc1ccc(-c2cc(C(F)(F)F)nn2-c2ccc(S(N)(=O)=O)cc2)cc1 ?
**A:** inactive

**Q:** Further, for O=C(O)c1cccc(C(=O)O)c1 ?
**A:** inactive

**Q:** Further, for CCN(CC)C(=O)Nc1ccc(OCC(O)CNC(C)(C)C)c(C(C)=O)c1 (stereo unspecified) ?
**A:** inactive

**Q:** Further, for O=C(O[C@@H]1Cc2c(O)cc(O)cc2O[C@@H]1c1cc(O)c(O)c(O)c1)c1cc(O)c(O)c(O)c1 ?
**A:** inactive

**Q:** Further, for CCC(CO)(CO)COCC(CC)(CO)CO ?
**A:** inactive

**Q:** Further, for CC(C)(c1ccccc1)c1ccc(Nc2ccc(C(C)(C)c3ccccc3)cc2)cc1 ?
**A:** inactive

**Q:** Further, for CC1=CC(=O)c2ccccc2C1=O ?
**A:** inactive

**Q:** Further, for CCCOC(=O)c1cc(O)c(O)c(O)c1 ?
**A:** inactive

**Q:** Further, for Cc1cc(Cc2cc(C)cc(C(C)(C)C)c2O)c(O)c(C(C)(C)C)c1 ?
**A:** active

**Q:** Further, for CC(=O)N[C@@H](CS)C(=O)O ?
**A:** inactive

**Q:** Further, for OCC(CO)N[C@H]1C[C@](O)(CO)[C@@H](O)[C@H](O)[C@H]1O ?
**A:** inactive

**Q:** Further, for O=Cc1ccc(Cl)cc1 ?
**A:** inactive

**Q:** Further, for COC(=O)[C@H]1[C@H]2C[C@@H]3c4[nH]c5cc(OC)ccc5c4CCN3C[C@H]2C[C@@H](OC(=O)c2cc(OC)c(OC)c(OC)c2)[C@@H]1OC ?
**A:** inactive

**Q:** Further, for CCCC(=O)c1ccccc1 ?
**A:** inactive

**Q:** Further, for O=C(O)CCc1ccccc1 ?
**A:** inactive

**Q:** Further, for O ?
**A:** inactive

**Q:** Further, for CC[C@H]1CN2CCc3cc(OC)c(OC)cc3[C@@H]2C[C@@H]1C[C@H]1NCCc2cc(OC)c(OC)cc21 ?
**A:** active

**Q:** Further, for NCCCCCC(=O)O ?
**A:** inactive
